test system: field corn (Zea mays L., var. Dekalb 535, CORN); test: Post-emerge test, crop safety; assay type: in vivo; details: post-emerge, 250 g ai/ha, crop damage rating 0-100 at 14 days after application
measuredMetric: Post-emerge Herbicidal Activity CORN

1) COc1c(Cl)cc(F)c(N2C(=O)C3CCCCN3C2=S)c1NC(=O)c1ccc2ccccc2c1 (stereo not drawn) [12-5]
20
2) COc1c(Cl)cc(F)c(-n2ncc(C(F)(F)F)cc2=O)c1NC(=O)c1ccc2ccccc2c1 [Compound 11-6]
20
3) Cc1nn(-c2c(Cl)cc(Cl)cc2NC(=O)c2ccc(F)cc2F)c(=O)n1C(F)F [Compound 6-13]
20

* * *

test system: velvetleaf (Abutilon theophrasti, ABUTH); test: Post-emerge test, greenhouse herbicide activity screening; format: in vivo; conditions: Rate 250 g ai/ha; rating scale 0-100 (0 no damage, 100 complete death); 14 days after application
measuredMetric: Post-emerge Herbicidal Activity, phytotoxicity rating ABUTH

1. COCCOC(=O)C(C)(Cl)Cc1c(OC)c(Cl)cc(F)c1-n1c(=O)cc(C(F)(F)F)n(C)c1=O (centres unmarked)
100
2. COCCOC(=O)C(Cl)Cc1c(OC)c(Cl)cc(F)c1-n1c(=O)cc(C(F)(F)F)n(C)c1=O (centres unmarked)
100
3. CCCOC(=O)C(Cl)Cc1c(OC)c(Cl)cc(F)c1-n1c(=O)cc(C(F)(F)F)n(C)c1=O (single isomer, unassigned)
100
4. COc1c(Cl)cc(F)c(-n2c(=O)cc(C(F)(F)F)n(C)c2=O)c1CC(C)(Cl)C(=O)OCC1CCCO1 (centres unmarked)
100
5. COc1c(Cl)cc(F)c(-n2c(=O)cc(C(F)(F)F)n(C)c2=O)c1CC(C)(Cl)C(=O)OCCSC (centres unmarked)
100
6. CCOC(=O)CCc1c(OC)c(Cl)cc(F)c1-n1c(=O)cc(C(F)(F)F)n(C)c1=O
98
7. COc1c(Cl)cc(F)c(-n2c(=O)cc(C(F)(F)F)n(C)c2=O)c1CC(Cl)C(=O)OCC(F)(F)F (centres unmarked)
95
8. CCOC(=O)C(Br)Cc1c(OC)c(Cl)cc(F)c1-n1c(=O)cc(C(F)(F)F)n(C)c1=O (single isomer, unassigned) [14-32]
95

* * *

test system: redroot pigweed (Amaranthus retroflexus, AMARE); assay: Post-emerge test, greenhouse herbicide activity screening; assay type: in vivo; conditions: post-emerge, 250 g ai/ha, 14 days after application, rating scale 0-100
As shown below, each of these compounds has a reported phytotoxicity rating AMARE value.
measuredMetric: phytotoxicity rating AMARE

1) COc1c(Cl)cc(F)c(-n2c(=O)cc(C(F)(F)F)n(C)c2=O)c1NC(=O)C=Cc1ccco1 [2-92]
50
2) COc1c(Cl)cc(F)c(-n2c(=O)cc(C(F)(F)F)n(C)c2=O)c1NC(=O)Oc1c(C)cc(C)cc1C [4-25]
100
3) COc1c(Cl)cc(F)c(-n2c(=O)cc(C(F)(F)F)n(C)c2=O)c1NC(=O)c1ccc2c(c1)OCO2 [2-73]
100
4) COc1c(Cl)cc(F)c(-n2c(=O)cc(C(F)(F)F)n(C)c2=O)c1NC(=O)OCc1c(F)cccc1F [4-29]
100
5) COC(=O)N(C(=O)OC)c1c(OC)c(Cl)cc(F)c1-n1c(=O)cc(C(F)(F)F)n(C)c1=O [4-2]
85
